Some compounds, each annotated with its measured fold induction at 10 µM.
System: primary human total T-cells
RUN DESCRIPTION: T-cell activation assessed by cytokine secretion (GM-CSF, IFNγ, TNFα)
Type: cell-based
APPLIED CONDITIONS: CD3 alone stimulation, 10 μM, read-out: IFNγ secretion

>  <COMPOUND>
Cc1cc(C(=O)Nc2cccc([C@H](C)Cc3nncn3C)c2)nc(C2CC2)n1

>  <fold induction at 10 µM>
> 4

$$$$
>  <COMPOUND>
COC1CN(Cc2cc3c(c(C(F)(F)F)c2)CN(c2cccc([C@@](C)(F)C(F)(F)c4nncn4C)c2)C3=O)C1

>  <fold induction at 10 µM>
3.01 to 4

$$$$
>  <COMPOUND>
C[C@H](Cc1nncn1C)c1cccc(N2Cc3c(ccnc3C3CC3)C2=O)c1

>  <fold induction at 10 µM>
2.01 to 3

$$$$
>  <COMPOUND>
C[C@H](Cc1nncn1C)c1cccc(N2Cc3c(cc(CN4CC(O)C4)cc3C(F)(F)F)C2=O)c1

>  <fold induction at 10 µM>
< 2

$$$$
>  <COMPOUND>
C[C@H](Cc1nncn1C)c1cccc(NC(=O)c2cccc(C(F)(F)F)n2)c1 [Compound 183a]

>  <fold induction at 10 µM>
> 4

$$$$

# fold induction at 10 µM (compound: Cn1cnnc1CC1(c2cccc(N3Cc4c(cc(CN5CC[C@H](C#N)C5)cc4C(F)(F)F)C3=O)c2)COC1 ) is 3.01 to 4

# fold induction at 10 µM (compound: C[C@H](Cc1nncn1C)c1cccc(NC(=O)c2nc(C(F)(F)F)c[nH]2)c1 ) is 2.01 to 3

# fold induction at 10 µM (compound: Cn1cnnc1CC1(c2cccc(NC(=O)c3nc4c(C(F)(F)F)cccc4[nH]3)c2)COC1 ) is 2.01 to 3

# fold induction at 10 µM (compound: C[C@H](Cc1nncn1C)c1cccc(NC(=O)c2cc3cc(N4CCNCC4)ccc3cn2)c1 ) is < 2
